Test system: Neu5Ac(a2-3)Gal(b1-3)GlcNAc(b1-3)GalNAc
Measurement protocol: glycan array binding signal (z-score within array); higher = stronger binding
Applied conditions: glycan notation: IUPAC condensed, linker removed
The entries come from a sample that favours the strongest signals as a whole.
Measurement label: glycan array binding signal (z-score)

Binder	glycan array binding signal (z-score)
Mnn9-2N3 (Aspergillus fumigatus) (protein) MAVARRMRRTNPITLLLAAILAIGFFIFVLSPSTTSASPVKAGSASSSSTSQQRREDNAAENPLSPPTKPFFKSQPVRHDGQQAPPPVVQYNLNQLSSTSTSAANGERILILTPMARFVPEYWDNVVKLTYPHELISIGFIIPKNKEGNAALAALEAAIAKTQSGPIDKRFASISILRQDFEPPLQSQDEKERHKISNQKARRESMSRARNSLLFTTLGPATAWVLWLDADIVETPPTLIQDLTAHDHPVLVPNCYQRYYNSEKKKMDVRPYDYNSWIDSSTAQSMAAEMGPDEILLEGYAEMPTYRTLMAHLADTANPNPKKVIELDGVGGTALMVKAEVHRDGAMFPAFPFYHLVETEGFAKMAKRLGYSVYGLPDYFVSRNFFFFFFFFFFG	-0.456

Q. Item PfulAvr4 2 (Pseudocercospora fuligena) (protein) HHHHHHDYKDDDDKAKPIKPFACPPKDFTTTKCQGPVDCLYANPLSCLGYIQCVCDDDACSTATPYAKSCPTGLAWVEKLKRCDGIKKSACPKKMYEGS has what recorded glycan array binding signal (z-score)?
A. -0.01
